Here the recorded GI50 is given for each entry.
# System: NCI-H460
# experiment summary: NCI tumour cell line growth inhibition, 48 h
Calls of active or inactive are those of the source. Rule as the data show it: active = GI50 up to about 1.1 µM and inactive = higher.

{"compound": "Cc1nc(C)c(N2CCN(S(=O)(=O)N(Cc3ccccc3)Cc3ccccc3)CC2)c(O)n1", "GI50": "> 46.9 µM (inactive)"}
{"compound": "C=CC[C@@]1(C(=O)OC)[C@H](Sc2ccccc2)C1(C)C", "GI50": "66.5 µM (inactive)"}
{"compound": "C[B@@-]1(c2ccc(C(F)(F)F)cc2)N[C@@H](Cc2ccccc2)C(=O)O1", "GI50": "> 100 µM (inactive)"}
{"compound": "O=C(Nc1nn(C(=O)c2ccc(Cl)cc2)c(=O)s1)c1ccc(Cl)cc1", "GI50": "> 100 µM (inactive)"}
{"compound": "Clc1ccc(-n2nnc(C3=NCCN3)c2-c2ccccc2)cc1", "GI50": "> 100 µM (inactive)"}
{"compound": "COc1cc2c3c(c1OC)Oc1ccc(cc1)CC1c4c(cc(OC)c(OC)c4Oc4ccc(cc4)CC3N(C)CC2)CCN1C (stereo unspecified)", "GI50": "18.7 µM (inactive)"}
{"compound": "c1ccc(C(c2cccc3c2ccc2ccccc23)C(c2ccccc2)c2cccc3c2ccc2ccccc23)cc1 (stereo unspecified)", "GI50": "> 100 µM (inactive)"}
{"compound": "CNC(=O)CCCNC(=O)CCCC(=O)OC", "GI50": "> 100 µM (inactive)"}
{"compound": "Cc1cc(O)nc(NN2C(Cl)C(=O)C2c2c(O)ccc3ccccc23)n1 (stereo unspecified)", "GI50": "15 µM (inactive)"}
{"compound": "COC(=O)C(C)(C)NC(=O)C(Cc1ccccc1)Nc1ncnc2c1ncn2-c1ccc(OC)cc1 (stereo unspecified)", "GI50": "22.9 µM (inactive)"}
{"compound": "CCCCCCCCCCCCC(=O)CCCCC(=O)O", "GI50": "19.4 µM (inactive)"}
{"compound": "OC(Cn1cncn1)(Cn1cncn1)c1ccc(Cl)cc1Cl", "GI50": "> 100 µM (inactive)"}
{"compound": "CC1(C)O[C@H]2OC(CO[Si](C)(C)C(C)(C)C)C(N=[N+]=[N-])[C@H]2O1 (stereo partly specified)", "GI50": "26.2 µM (inactive)"}
{"compound": "O=C(CN1CCN(Cc2ccccc2)CC1)N1CCCn2c1nc1ccccc1c2=O", "GI50": "> 100 µM (inactive)"}
{"compound": "Cc1nccn1S(=O)(=O)c1ccc(Br)cc1Br", "GI50": "38.4 µM (inactive)"}
{"compound": "CC1CCCN(CP(=O)(c2ccccc2)c2ccccc2)C1 (stereo unspecified)", "GI50": "92.5 µM (inactive)"}
